# test-details: Stability on storage under severe conditions at 60° C. in the air (remaining tetrahydrofolic acid content by HPLC, colour)
# Type: physicochemical
# cond: 13 days at 60° C. in air
measured-quantity: Remaining tetrahydrofolic acid content in comparison with the initial value (%)

Worked set:
Report Remaining tetrahydrofolic acid content in comparison with the initial value for Nc1nc2c(c(=O)[nH]1)N[C@H](CNc1ccc(C(=O)N[C@@H](CCC(=O)O)C(=O)O)cc1)CN2 (mixture of isomers) [amorphous (6R,S)-tetrahydrofolic acid, (6R,S)-tetrahydrofolic acid] please. 17.4

Report Remaining tetrahydrofolic acid content in comparison with the initial value for Nc1nc2c(c(=O)[nH]1)N[C@@H](CNc1ccc(C(=O)N[C@@H](CCC(=O)O)C(=O)O)cc1)CN2 [Amorphous (6S)-tetrahydrofolic acid, (6S)-tetrahydrofolic acid] please. 13.7

Report Remaining tetrahydrofolic acid content in comparison with the initial value for Nc1nc2c(c(=O)[nH]1)N[C@H](CNc1ccc(C(=O)N[C@@H](CCC(=O)O)C(=O)O)cc1)CN2 [amorphous (6R)-tetrahydrofolic acid, (6R)-tetrahydrofolic acid] please. 29.1

(a) Nc1nc2c(c(=O)[nH]1)N[C@@H](CNc1ccc(C(=O)N[C@@H](CCC(=O)O)C(=O)O)cc1)CN2 [Crystalline (6S)-tetrahydrofolic acid, (6S)-tetrahydrofolic acid]
(b) Nc1nc2c(c(=O)[nH]1)N[C@H](CNc1ccc(C(=O)N[C@@H](CCC(=O)O)C(=O)O)cc1)CN2 [Yamanouchi's crystalline (6R,S)-tetrahydrofolic acid]
Smaller Remaining tetrahydrofolic acid content in comparison with the initial value value? Options are a and b Pick one and reply with its label. b
(b: 48.6%, a: 98.7%)

Data provenance is patent US6596721B2.
